These data points were gathered from ChEMBL document CHEMBL3856217.

Recorded Activity by entry
protocol_text: Antioxidant activity assessed as DPPH free radical scavenging activity at 10 uM after 30 mins by UV-spectrophotometric method relative to control
Format: functional
Report the figure in % without appending any unit label.

# annotated cases, reported Activity shown
{"compound": "O=C(O)Cn1c(=O)c(-c2c(O)cc(O)cc2O)nc2cccnc21", "readout_name": "Activity", "reading": 40.2}
{"compound": "O=C(O)Cn1c(=O)c(-c2cc(O)c(O)c(O)c2)nc2cccnc21", "readout_name": "Activity", "reading": 34.6}
{"compound": "O=C(O)Cn1c(=O)c(/C=C/c2ccc(O)c(O)c2)nc2cccnc21", "readout_name": "Activity", "reading": 55.1}
{"compound": "O=C(O)Cn1c(=O)c(/C=C/c2ccccc2)nc2cccnc21", "readout_name": "Activity", "reading": 35.5}
{"compound": "Cc1c(C)c2c(c(C)c1O)CCC(C)(C(=O)O)O2 (stereo unspecified)", "readout_name": "Activity", "reading": 78.2}

[ask] Give the reported Activity for this compound. `COc1cc(/C=C/c2nc3cc(Cl)cnc3n(CC(=O)O)c2=O)ccc1O`
[reply] 62.3

----------
protocol_text: Antioxidant activity assessed as DPPH free radical scavenging activity at 10 uM after 30 mins by UV-spectrophotometric method relative to control
Type: functional
Recorded Activity by entry
Report the figure in % without appending any unit label.

{"entry_smiles": "COc1cc(/C=C/c2nc3cccnc3n(CC(=O)O)c2=O)ccc1O", "reading": 48.6}
{"entry_smiles": "O=C(O)Cn1c(=O)c(/C=C/c2ccc(O)c(O)c2)nc2cc(Br)cnc21", "reading": 70.8}
{"entry_smiles": "O=C(O)Cn1c(=O)c(/C=C/c2ccc(O)c(O)c2)nc2cc(Cl)cnc21", "reading": 74.7}
{"entry_smiles": "O=C(O)Cn1c(=O)c(-c2c(O)cc(O)cc2O)nc2cc(Cl)cnc21", "reading": 41.3}

[ask] Give the reported Activity for this compound. `COc1cc(/C=C/c2nc3cc(Br)cnc3n(CC(=O)O)c2=O)ccc1O`
[reply] 59.6

----------
protocol_text: Antioxidant activity assessed as DPPH free radical scavenging activity at 50 uM after 30 mins by UV-spectrophotometric method relative to control
Assay type: functional
Activity class ranges: lo: < 60%; med: ≥ 60% and < 80%; hi: ≥ 80%

Solved cases below.
{"compound": "Cc1c(C)c2c(c(C)c1O)CCC(C)(C(=O)O)O2 (stereo unspecified)", "group": "hi"}
{"compound": "O=C(O)Cn1c(=O)c(-c2c(O)cc(O)cc2O)nc2cccnc21", "group": "med"}
{"compound": "O=C(O)Cn1c(=O)c(/C=C/c2ccc(O)cc2)nc2cc(Cl)cnc21", "group": "lo"}

[ask] The entry to classify is `O=C(O)Cn1c(=O)c(/C=C/c2ccc(O)cc2)nc2cccnc21` ; which class holds it?
[reply] lo

[ask] The entry to classify is `O=C(O)Cn1c(=O)c(-c2c(O)cc(O)cc2O)nc2cc(Cl)cnc21` ; which class holds it?
[reply] med

[ask] The entry to classify is `O=C(O)Cn1c(=O)c(/C=C/c2ccc(O)c(O)c2)nc2cc(Cl)cnc21` ; which class holds it?
[reply] hi

[ask] The entry to classify is `O=C(O)Cn1c(=O)c(/C=C/c2ccccc2)nc2cccnc21` ; which class holds it?
[reply] med

[ask] The entry to classify is `COc1cc(CCc2nc3cccnc3n(CC(=O)O)c2=O)ccc1O` ; which class holds it?
[reply] lo
